test system: Mus musculus; test: Anticonvulsant activity in pentylenetetrazole-induced Mus musculus albino (mouse) seizure model assessed as survival at 100 mg/kg, ip administered 30 min followed by pentylenetetrazole induction measured for 30 min relative to control; format: functional; conditions: 0.5 h, route intraperitoneal
Exercise: state measured survival at 100 mg/kg for each of the compounds provided.
One number for each entry, in %.

Working through the 6 compounds below one at a time, give survival at 100 mg/kg for each.
1. O=C(CNc1ccc(Br)cc1)N/N=C/c1ccccc1Cl
2. CCOc1ccc(NCC(=O)N/N=C/c2ccccc2O)cc1
3. CCOc1ccc(NCC(=O)NN=C(C)C)cc1
4. CC(C)=NNC(=O)CNc1ccc(Br)cc1
5. O=C(CNc1ccc(Br)cc1)N/N=C/c1ccc([N+](=O)[O-])cc1
6. CCOc1ccc(NCC(=O)N/N=C(/C)c2ccccc2)cc1

A.
[25, 12, 0, 25, 62, 0]

====

tested on: Mus musculus; experiment: Anticonvulsant activity in Mus musculus albino (mouse) assessed as increase in onset of pentylenetetrazole-induced seizure at 300 mg/kg, ip administered 30 min followed by pentylenetetrazole induction measured for 30 min (reference value: 184 +/- 32 secs); type: functional; details: route intraperitoneal
value kind: Time (s)
One number for each entry, in s.

See these solved cases before continuing.
CCOc1ccc(NCC(=O)N/N=C/c2ccccc2Cl)cc1
590
O=C(CNc1ccc(Br)cc1)N/N=C/c1ccccc1O
884
C/C(=N\NC(=O)CNc1ccc(Br)cc1)c1ccccc1
915
CCOc1ccc(NCC(=O)N/N=C/c2ccc([N+](=O)[O-])cc2)cc1
885

Q. Give the reported Time for this molecule. CCOc1ccc(NCC(=O)N/N=C/c2ccccc2O)cc1
A. 616

====

Exercise: state measured Time for each of the compounds provided.
system: Mus musculus; assay: Anticonvulsant activity in Mus musculus albino (mouse) assessed as decrease in pentylenetetrazole-induced total seizure time at 300 mg/kg, ip administered 30 min followed by pentylenetetrazole induction measured for 30 min (reference value: 9.9 +/- 1.3 secs); type: functional; details: route intraperitoneal

CCOc1ccc(NCC(=O)N/N=C/c2ccccc2[N+](=O)[O-])cc1
6.8 s
O=C(CNc1ccc(Br)cc1)N/N=C/c1ccccc1Cl
4.5 s
CCOc1ccc(NCC(=O)N/N=C/c2ccccc2Cl)cc1
9.3 s
CCOc1ccc(NCC(=O)NN=C(C)C)cc1
4.2 s
CC(C)=NNC(=O)CNc1ccc(Br)cc1
3.3 s

Continue with the compound presented below.
Q. Give the reported Time for this compound. O=C(CNc1ccc(Br)cc1)N/N=C/c1ccccc1O
A. 6.6 s
